Source text: The following compounds were used as chelating agents in manufacture of cleaning liquids.
endpoint: pKa4

Reference set (2 entries):
>>> observed("O=C(O)CN(CCN(CC(=O)O)CC(=O)O)CCN(CC(=O)O)CC(=O)O")
8.60
>>> observed("CC(O)(P(=O)(O)O)P(=O)(O)O")
11.3

(1) O=C(O)CN(CCN(CC(=O)O)CC(=O)O)CC(=O)O
(2) O=P(O)(O)CN(CCN(CP(=O)(O)O)CP(=O)(O)O)CP(=O)(O)O
Query :: Pick the one with the larger pKa4: 1 vs 2 Answer with the label corresponding to your selection.
Result :: 1
(1: 10.30, 2: 6.18)
